meta.source: paper PMC6079014

assay-target: wild type BbFpn (Bdellovibrio bacteriovorus)
Sequence (Q6MLJ0 whole entry): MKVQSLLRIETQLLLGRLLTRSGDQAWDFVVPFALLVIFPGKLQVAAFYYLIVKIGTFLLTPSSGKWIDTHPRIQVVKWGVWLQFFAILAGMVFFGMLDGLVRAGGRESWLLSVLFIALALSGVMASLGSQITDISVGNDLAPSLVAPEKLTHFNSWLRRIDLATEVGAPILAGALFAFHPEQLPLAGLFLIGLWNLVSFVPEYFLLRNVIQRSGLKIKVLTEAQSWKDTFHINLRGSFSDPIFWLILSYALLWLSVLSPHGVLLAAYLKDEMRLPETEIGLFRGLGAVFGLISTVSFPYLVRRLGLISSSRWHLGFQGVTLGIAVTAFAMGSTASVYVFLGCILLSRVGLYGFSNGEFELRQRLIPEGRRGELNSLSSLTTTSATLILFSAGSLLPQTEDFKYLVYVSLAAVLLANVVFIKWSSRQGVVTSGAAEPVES
experiment-description: biochemical
Type: binding, Bdellovibrio bacteriovorous
protocol-conditions: Supplementary Figs. 5 and 9; one experiment; read-out: KD (M), ITC
attribute-measured: Kd (M)
Give bare numbers, in M.

[Ca+2] [Ca^2+, calcium] = 1.18e-05

In the following, a different compound is considered.
For reference, reported Kd for [Sr+2] [Sr^2+, strontium] stands at 4.57e-05

###

assay-target: human Fpn Q99A (Homo sapiens, UniProt Q9NP59, Q99A)
Construct: expressed in transfected cells; host or cells: Xenopus laevis oocytes injected with mutant Fpn RNA (pOX(+) vector)
Sequence (Q9NP59 1-571 Q99A): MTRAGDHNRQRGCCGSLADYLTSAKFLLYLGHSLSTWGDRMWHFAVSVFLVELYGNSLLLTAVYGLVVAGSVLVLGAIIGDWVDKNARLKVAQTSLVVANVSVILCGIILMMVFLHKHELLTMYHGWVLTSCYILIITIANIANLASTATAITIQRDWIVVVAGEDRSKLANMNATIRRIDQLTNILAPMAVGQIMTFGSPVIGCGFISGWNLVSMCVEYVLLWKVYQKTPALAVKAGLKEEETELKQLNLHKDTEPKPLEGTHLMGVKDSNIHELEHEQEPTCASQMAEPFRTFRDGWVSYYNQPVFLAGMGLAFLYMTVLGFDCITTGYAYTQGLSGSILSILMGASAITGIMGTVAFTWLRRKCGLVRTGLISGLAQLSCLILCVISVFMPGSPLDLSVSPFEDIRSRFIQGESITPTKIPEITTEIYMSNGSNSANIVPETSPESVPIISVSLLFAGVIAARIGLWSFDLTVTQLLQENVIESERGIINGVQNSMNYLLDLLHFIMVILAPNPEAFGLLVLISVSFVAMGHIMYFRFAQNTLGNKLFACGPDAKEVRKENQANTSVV
experiment-description: 55Fe efflux assay in Xenopus oocytes expressing Q99A mutant human Fpn
Type: cell-based
protocol-conditions: fit by Eq. (2), ± SEM, read-out: K0.5Ca, half-maximal extracellular Ca2+ concentration for stimulation of 55Fe efflux
attribute-measured: pEC50
Numbers only, as −log10 of the molar value.

Sample `[Ca+2]` , system: human Fpn Q99A (Homo sapiens, UniProt Q9NP59, Q99A). Its pEC50 is 2.62
